Test system: U-251
Method Summary: NCI tumour cell line growth inhibition, 48 h
Calls of active or inactive are those of the source. Cut-off read from the data, not from the text of the source: active = GI50 up to about 1.1 µM and inactive = higher.
Return exactly one item of active, inactive

Enquiry: Outcome? NC1=CN(Cc2ccccc2)C2=N/C(=C\c3ccccc3)C(=O)N12
Return: inactive

Enquiry: Outcome? Cc1c2cc[n+](C)cc2c(C)c2c1sc1ccccc12
Return: active

Enquiry: Outcome? COc1ccc(/C=C2\N=C(c3ccccc3)OC2=O)cc1OC(C)=O
Return: inactive

Enquiry: Outcome? Cc1ccc(NC(=O)/C(Cc2nc3ccc([N+](=O)[O-])cc3nc2O)=N\NC(=O)C[n+]2ccccc2)c(C)c1
Return: inactive

Enquiry: Outcome? CCO/N=C(/N)c1ncn(Cc2ccccc2)c1NCC(OCC)OCC
Return: inactive

Enquiry: Outcome? COC(=O)c1ccccc1C1CN=NC12Cc1cccc(C)c1C2=O (stereo unspecified)
Return: inactive

Enquiry: Outcome? C=CCc1cccc2cc(C(=O)NCc3ccccc3)c(=N)oc12
Return: inactive

Enquiry: Outcome? O/N=C1\CC2(N3CCOCC3)CCC1(c1ccccc1)CC2
Return: inactive

Enquiry: Outcome? CC(C(=O)O)/C(=C\c1ccc2c(c1)OCO2)C(=O)O (stereo unspecified)
Return: inactive

Enquiry: Outcome? CCC(C=O)P1(=O)OC(C)(C)CN1C(C)(C)C (stereo unspecified)
Return: inactive

Enquiry: Outcome? Oc1ccc(-c2ccccc2)nn1
Return: inactive

----------
Give measured GI50 for each item. Keep answers brief.
Tested on: SK-OV-3
Method Summary: NCI tumour cell line growth inhibition, 48 h
The source made the active and inactive calls. Rule as the data show it: active = GI50 up to about 1.1 µM and inactive = higher.

Enquiry: For c1csc(-c2ccsc2-c2cccs2)c1 , write its GI50.
Return: > 100 µM (inactive)

Enquiry: For COc1cc(OC)c2ssc3c(OC)cc(OC)c4ssc1c2-c43 , write its GI50.
Return: > 100 µM (inactive)

Enquiry: For Cc1c2c(n3c(nc4ccccc43)c1C#N)N(c1ccc(F)cc1)CC2 , write its GI50.
Return: 74.5 µM (inactive)

Enquiry: For CC/C(N)=N\NC(=O)OC(C)(C)C , write its GI50.
Return: > 100 µM (inactive)

Enquiry: For Cc1nc(N)nc(N)c1CCCc1ccccc1 , write its GI50.
Return: 57.5 µM (inactive)

Enquiry: For CC(C)[Si](OCC/C=C/C1CCC(=O)C1C(O)C1CCCCC1)(C(C)C)C(C)C (stereo unspecified) , write its GI50.
Return: 15.7 µM (inactive)

Enquiry: For COc1cc2c3c(c1OC)C1(C=CC(=O)C=C1)C[C@H]3N(C)CC2 , write its GI50.
Return: > 100 µM (inactive)

Enquiry: For OC1=CN=C(C2CC2)Oc2ccccc21 , write its GI50.
Return: > 100 µM (inactive)

Enquiry: For Cc1cn(C2CC(O)C(Cn3cc(Cn4ncc(=O)[nH]c4=O)nn3)O2)c(=O)[nH]c1=O (stereo unspecified) , write its GI50.
Return: > 100 µM (inactive)

Enquiry: For N#Cc1c(N2CCCC2)ncn(-c2ccccc2)c1=O , write its GI50.
Return: > 100 µM (inactive)

Enquiry: For CSC1(C)CC2C(CC1N1CCCCC1)C2(C)C (stereo unspecified) , write its GI50.
Return: > 100 µM (inactive)

----------
System: K562
Method Summary: NCI tumour cell line growth inhibition, 48 h
The source made the active and inactive calls. No stated cut-off is given here; in the data, active = GI50 up to about 1.1 µM and inactive = higher.
Give measured GI50 for each item. Keep answers brief.

Enquiry: Please tell me the measured GI50 for Cc1ccc(NC(=O)CC2Sc3ccccc3NC2=O)cc1C (stereo unspecified) ; system: K562.
Return: 28.2 µM (inactive)

Enquiry: Please tell me the measured GI50 for CCOC(=O)/C(=C\c1ccccc1)C(=O)CCN1CCOCC1 ; system: K562.
Return: 1.57 µM (inactive)

Enquiry: Please tell me the measured GI50 for Cc1nc(N)nc(N)c1CCCc1ccccc1 ; system: K562.
Return: 0.552 µM (active)

Enquiry: Please tell me the measured GI50 for O=C(CC(=O)N1N=C(N2c3ccccc3Sc3ccccc32)CC1c1ccccc1)Nc1ccc(Cl)cc1 (stereo unspecified) ; system: K562.
Return: > 10 µM (inactive)

Enquiry: Please tell me the measured GI50 for Cc1ccc(S(=O)(=O)N/N=c2\c(C)c(C3=NS(=O)(=O)c4cc(S(N)(=O)=O)c(Cl)cc4N3)oc3c(Cl)cc(Cl)cc23)cc1 ; system: K562.
Return: 61.1 µM (inactive)

Enquiry: Please tell me the measured GI50 for CCCCCCCCCCCCCCCCNc1cccc2ccccc12 ; system: K562.
Return: > 100 µM (inactive)

----------
System: SN12C
Method Summary: NCI tumour cell line growth inhibition, 48 h
Calls of active or inactive are those of the source. No stated cut-off is given here; in the data, active = GI50 up to about 1.1 µM and inactive = higher.
Quantity: GI50

Enquiry: For COc1ccc(CSc2ccccc2Cn2cccc2)cc1OC , write its GI50.
Return: 34.8 µM (inactive)

Enquiry: For CCOC(=O)Cn1c(C(F)(F)F)nc2nc(Cl)c(Cl)nc21 , write its GI50.
Return: 49.4 µM (inactive)

Enquiry: For Cn1c(N)cc(=O)nc1N , write its GI50.
Return: > 100 µM (inactive)

Enquiry: For CC1C2(C)OCC(C#N)(C(=N)O2)C1(C#N)C#N (stereo not given) , write its GI50.
Return: 15.7 µM (inactive)

Enquiry: For C=C(Cl)CN1c2ccccc2C=Cc2ccccc21 , write its GI50.
Return: 20.6 µM (inactive)

Enquiry: For COc1ccc(C(C)NNC(=O)c2cc[n+]([BH2-]C#N)cc2)cc1F (stereo not given) , write its GI50.
Return: > 100 µM (inactive)

Enquiry: For CCCCCCC(C)CC(CCCCCC)NCCOC(=O)c1ccc([N+](=O)[O-])cc1 (stereo not given) , write its GI50.
Return: 12.4 µM (inactive)

Enquiry: For COc1cc(C2c3cc4c(cc3OC(NNc3ccccc3)C2C)OCO4)cc(OC)c1OC (stereo not given) , write its GI50.
Return: 2.99 µM (inactive)

Enquiry: For Oc1ccc(-c2nc(-c3cccnc3)c(-c3ccc(Cl)cc3)[nH]2)cc1 , write its GI50.
Return: 15.8 µM (inactive)

Enquiry: For CC(=O)Nc1ccc2c3c(cc(O)c2c1)N(C(=O)CCCCCC(=O)Nc1ccc2c4c(cc(O)c2c1)N(C(=O)OC(C)(C)C)CC4CCl)CC3CCl (stereo not given) , write its GI50.
Return: 3.45 µM (inactive)

----------
Give measured GI50 for each item. Keep answers brief.
Test system: MDA-MB-231
Method Summary: NCI tumour cell line growth inhibition, 48 h
The source made the active and inactive calls. Rule as the data show it: active = GI50 up to about 1.1 µM and inactive = higher.

Enquiry: For C=CCC1(Sc2ccccn2)Sc2ccc3ccccc3c2-c2c(ccc3ccccc23)S1 , write its GI50.
Return: > 100 µM (inactive)

Enquiry: For CCOC(=O)CCN1C(=O)C(=O)N(c2ccc(OC)cc2)C1=S , write its GI50.
Return: > 100 µM (inactive)

Enquiry: For O=C(O)c1nn[nH]c1Cl , write its GI50.
Return: > 100 µM (inactive)

Enquiry: For CC(C)(C)C1CCC2c3c([nH]c4ccccc34)C3C(=O)N(c4ccccc4[N+](=O)[O-])C(=O)C3C2C1 (centres undefined) , write its GI50.
Return: 10.6 µM (inactive)

----------
Give measured GI50 for each item. Keep answers brief.
Tested on: UO-31
Method Summary: NCI tumour cell line growth inhibition, 48 h
Active and inactive are the calls of the source. Cut-off read from the data, not from the text of the source: active = GI50 up to about 1.1 µM and inactive = higher.

Enquiry: Please tell me the measured GI50 for COc1cc(C(=O)C/C(CCC(=O)Nc2ccccc2[N+](=O)[O-])=N\NC(=O)CC#N)ccc1O ; system: UO-31.
Return: > 100 µM (inactive)

Enquiry: Please tell me the measured GI50 for OC1=CN=C(C2CC2)Oc2ccccc21 ; system: UO-31.
Return: 25.7 µM (inactive)

Enquiry: Please tell me the measured GI50 for C[C@@H]1C[C@@H]2OC(=O)[C@]3(C)[C@H]2[C@@H](OC3(C)O)[C@]2(C)C(=O)C=C[C@@H]12 (some centres undefined) [TENULIN] ; system: UO-31.
Return: 40.8 µM (inactive)

Enquiry: Please tell me the measured GI50 for Nc1c(Cl)ncnc1NCCCNc1ncnc(Cl)c1N ; system: UO-31.
Return: 95.3 µM (inactive)

Enquiry: Please tell me the measured GI50 for N#CC1=C(S)N(C2OC(CO)C(O)C(O)C2O)C(c2ccccc2)=CC1c1ccccc1 (centres undefined) ; system: UO-31.
Return: > 100 µM (inactive)

Enquiry: Please tell me the measured GI50 for Cc1cc(C)nc(NS(=O)(=O)c2ccc(NC(=O)c3cccc4c(Nc5ccc(S(=O)(=O)Nc6nc(C)cc(C)n6)cc5)c5ccccc5nc34)cc2)n1 ; system: UO-31.
Return: 17.7 µM (inactive)

Enquiry: Please tell me the measured GI50 for COc1ccc(-n2c(SC(CN3CCOCC3)CN3CCCC3=O)nc3ccccc3c2=O)cc1 (centres undefined) ; system: UO-31.
Return: 35.6 µM (inactive)

Enquiry: Please tell me the measured GI50 for C/C(=N/c1[nH]c(=O)cc2c1C(=O)CC2)N(C)C ; system: UO-31.
Return: > 200 µM (inactive)

Enquiry: Please tell me the measured GI50 for O=C1c2ccccc2C2(Br)C(=O)c3ccccc3C12 (centres undefined) ; system: UO-31.
Return: > 100 µM (inactive)
